Reported Minimal Inhibitory Concentration Range values are given for each entry in this list.
test system: Bacteroides tectum; assay: Agar dilution MIC; type: cell-based; details: 22 isolates

// solved cases for Minimal Inhibitory Concentration Range follow
compound: CO/N=C1\CN(c2nc3c(cc2F)c(=O)c(C(=O)O)cn3C2CC2)CC1CN (racemic)
target-desc: Bacteroides tectum
Minimal Inhibitory Concentration Range: 0.06 to 8 µg/mL
--
compound: CC[C@H]1OC(=O)[C@H](C)[C@@H](O[C@H]2C[C@@](C)(OC)[C@@H](O)[C@H](C)O2)[C@H](C)[C@@H](O[C@@H]2O[C@H](C)C[C@H](N(C)C)[C@H]2O)[C@](C)(O)C[C@@H](C)C(=O)[C@H](C)[C@@H](O)[C@]1(C)O
target-desc: Bacteroides tectum
Minimal Inhibitory Concentration Range: 0.25 to 1 µg/mL
--
compound: CC[C@H]1OC(=O)[C@H](C)[C@@H](O[C@H]2C[C@@](C)(OC)[C@@H](O)[C@H](C)O2)[C@H](C)[C@@H](O[C@@H]2O[C@H](C)C[C@H](N(C)C)[C@H]2O)[C@](C)(OC)C[C@@H](C)C(=O)[C@H](C)[C@@H](O)[C@]1(C)O
target-desc: Bacteroides tectum
Minimal Inhibitory Concentration Range: 0.125 µg/mL
--
compound: N[C@@H]1[C@H]2CN(c3nc4c(cc3F)c(=O)c(C(=O)O)cn4-c3ccc(F)cc3F)C[C@@H]12
target-desc: Bacteroides tectum
Minimal Inhibitory Concentration Range: 0.03 to 0.125 µg/mL

Switching to the query record.
For reference, reported Minimal Inhibitory Concentration Range for `CC[C@H]1OC(=O)[C@H](C)[C@@H](O[C@H]2C[C@@](C)(OC)[C@@H](O)[C@H](C)O2)[C@H](C)[C@@H](O[C@@H]2O[C@H](C)C[C@H](N(C)C)[C@H]2O)[C@](C)(O)C[C@@H](C)CN(C)[C@H](C)[C@@H](O)[C@]1(C)O` stands at 0.5 to 2 µg/mL

* * *

system: Clostridium inocuum; assay: Agar dilution MIC; format: cell-based, Clostridium innocuum; settings: Clostridium, read-out: Minimal Inhibitory Concentration 50% (MIC50); 11 isolates
measured-endpoint: MIC50 (µg/mL)
Note: unit µg/mL is implicit; provide only the numeric part.

Sample answers from the record:
structure-as-smiles: N[C@@H]1[C@H]2CN(c3nc4c(cc3F)c(=O)c(C(=O)O)cn4-c3ccc(F)cc3F)C[C@@H]12
target-desc: Clostridium inocuum
quantity-unit: µg/mL
MIC50: 0.5

structure-as-smiles: Cc1ncc([N+](=O)[O-])n1CCO
target-desc: Clostridium inocuum
quantity-unit: µg/mL
MIC50: 0.5

Let us move to another entry and its MIC50.
Reported MIC50 ( `CCC[C@@H]1C[C@@H](C(=O)N[C@@H]([C@H]2O[C@H](SC)[C@H](O)[C@@H](O)[C@H]2O)[C@H](C)Cl)N(C)C1` ) = 0.5

* * *

test system: Prevotella bivia; test: Agar dilution MIC; type: cell-based; conditions: Prevotella bivia, 21 isolates; read-out: Minimal Inhibitory Concentration 90% (MIC90)
In plain terms, low MIC90, meaning strictly below 2 µg/mL, gives fulfilled, and everything else gives not fulfilled.

compound: CC[C@H]1OC(=O)[C@H](C)[C@@H](O[C@H]2C[C@@](C)(OC)[C@@H](O)[C@H](C)O2)[C@H](C)[C@@H](O[C@@H]2O[C@H](C)C[C@H](N(C)C)[C@H]2O)[C@](C)(O)C[C@@H](C)CN(C)[C@H](C)[C@@H](O)[C@]1(C)O
cat: fulfilled
//
compound: CO/N=C1\CN(c2nc3c(cc2F)c(=O)c(C(=O)O)cn3C2CC2)CC1CN (racemic)
cat: not fulfilled
//
compound: CCC[C@@H]1C[C@@H](C(=O)N[C@@H]([C@H]2O[C@H](SC)[C@H](O)[C@@H](O)[C@H]2O)[C@H](C)Cl)N(C)C1
cat: fulfilled

API: query returns whether the compound falls strictly under 2 µg/mL in MIC90. Query: `CC[C@H]1OC(=O)[C@H](C)[C@@H](O[C@H]2C[C@@](C)(OC)[C@@H](O)[C@H](C)O2)[C@H](C)[C@@H](O[C@@H]2O[C@H](C)C[C@H](N(C)C)[C@H]2O)[C@](C)(OC)C[C@@H](C)C(=O)[C@H](C)[C@@H](O)[C@]1(C)O`
fulfilled

is_below(MIC90, 2 µg/mL) for `Cc1ncc([N+](=O)[O-])n1CCO` ?
not fulfilled
